Target: HDAC1 (Homo sapiens)
Sequence (Q13547 whole entry): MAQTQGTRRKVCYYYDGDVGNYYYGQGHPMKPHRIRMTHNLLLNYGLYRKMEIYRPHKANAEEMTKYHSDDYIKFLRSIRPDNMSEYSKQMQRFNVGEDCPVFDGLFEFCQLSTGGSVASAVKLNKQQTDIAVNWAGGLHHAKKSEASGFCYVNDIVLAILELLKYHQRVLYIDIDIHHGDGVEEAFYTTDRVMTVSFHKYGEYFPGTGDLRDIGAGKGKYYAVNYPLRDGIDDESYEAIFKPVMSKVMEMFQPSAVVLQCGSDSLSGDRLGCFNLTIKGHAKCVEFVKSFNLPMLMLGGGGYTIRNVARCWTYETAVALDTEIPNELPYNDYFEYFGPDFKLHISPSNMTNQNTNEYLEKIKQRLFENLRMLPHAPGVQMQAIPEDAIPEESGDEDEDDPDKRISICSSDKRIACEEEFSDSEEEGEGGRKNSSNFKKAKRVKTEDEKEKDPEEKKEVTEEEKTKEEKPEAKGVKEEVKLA
property_label: IC50

Below: 3 molecules and their reported IC50.
molecule	IC50
CCC(=O)CCCCC[C@H](NC(=O)c1cc(CN2CCCCC2)ns1)c1ncc(-c2cc3ccccc3nc2OC)o1 [Compound 94]	< 100 nM
CCC(=O)CCCCC[C@H](NC(=O)c1snnc1C)c1ncc(-c2cc3ccccc3nc2OC)o1 [Compound 101]	< 100 nM
CCC(=O)CCCCC[C@H](NC(=O)C1CN(C)C1)c1ncc(-c2ccc(-c3ccn[nH]3)cc2)o1 [Compound 53]	< 100 nM

In: Give IC50 for CCC(=O)CCCCC[C@H](NC(=O)Cc1nccs1)c1ncc(-c2cc3ccccc3nc2OC)o1 [Compound 76] tested on HDAC1 (Homo sapiens).
Out: < 100 nM

In: Give IC50 for CCC(=O)CCCCC[C@H](NC(=O)C1CN(C)C1)c1nnc(-c2cc3ccccc3n(C)c2=O)o1 [Compound 71] tested on HDAC1 (Homo sapiens).
Out: < 100 nM

In: Give IC50 for CCC(=O)CCCCC[C@H](NC(=O)CCc1cnn(C)c1)c1ncc(-c2cc3ccccc3nc2OC)o1 [Compound 93] tested on HDAC1 (Homo sapiens).
Out: < 100 nM

In: Give IC50 for CCC(=O)CCCCC[C@H](NC(=O)CCN(C)C)c1ncc(-c2cc3ccccc3nc2OC)o1 [Compound 38] tested on HDAC1 (Homo sapiens).
Out: < 100 nM

In: Give IC50 for CCC(=O)CCCCC[C@H](NC(=O)[C@H](CC(F)(F)F)N(C)C)c1ncc(-c2cc3ccccc3nc2OC)o1 [Compound 63] tested on HDAC1 (Homo sapiens).
Out: 100 to 1000 nM

In: Give IC50 for CCC(=O)CCCCC[C@H](NC(=O)Cn1ccnn1)c1ncc(-c2cc3ccccc3nc2OC)o1 [Compound 59] tested on HDAC1 (Homo sapiens).
Out: < 100 nM

In: Give IC50 for CCC(=O)CCCCC[C@H](NC(=O)C1(N(C)C)CCCC1)c1ncc(-c2cc3ccccc3nc2OC)o1 [Compound 105] tested on HDAC1 (Homo sapiens).
Out: < 100 nM

In: Give IC50 for CCC(=O)CCCCC[C@H](NC(=O)C1CN(C)C1)c1ncc(-c2cc3ccccc3n(C)c2=O)o1 [Compound 92] tested on HDAC1 (Homo sapiens).
Out: < 100 nM

In: Give IC50 for CCC(=O)CCCCC[C@H](NC(=O)C(C)(C)N(C)C)c1ncc(-c2ccccc2)o1 [Compound 9] tested on HDAC1 (Homo sapiens).
Out: < 100 nM

----------
Tested on: human γ-globin promoter (EGFP reporter) in K562 cells
Test: HbF activation assay on K562 (EGFP/RFP reporter model system for screening of inducers of fetal hemoglobin)
Assay type: cell-based
Conditions: 60 hours
From the text: In order to test several compounds, a model system was produced based on previous findings present in the literature. […]
Property: EC50; scope: individual molecules

molecule	EC50
CCC(=O)CCCCC[C@H](NC(=O)C1CCN(C)CC1)c1ncc(-c2cc3ccccc3n(C)c2=O)o1 [Compound 109]	100 to 1000 nM
CCC(=O)CCCCC[C@H](NC(=O)c1sc(C)nc1C)c1ncc(-c2cc3ccccc3nc2OC)o1 [Compound 83]	> 1000 nM
CCC(=O)CCCCC[C@H](NC(=O)CC1CN(C)C1)c1ncc(-c2cc3ccccc3nc2OC)o1 [Compound 108]	100 to 1000 nM

In: Read the entry CCC(=O)CCCCC[C@H](NC(=O)C(C)(C)N(C)C)c1ncc(-c2cc3ccccc3n(C)c2=O)o1 [Compound 107] and write its reported EC50.
Out: < 100 nM

In: Read the entry CCC(=O)CCCCC[C@H](NC(=O)C1CN(C)C1)c1ncc(-c2ccc(-n3cccn3)cc2)o1 [Compound 61] and write its reported EC50.
Out: > 1000 nM

In: Read the entry CCC(=O)CCCCC[C@H](NC(=O)CN1CCN(C)CC1)c1ncc(-c2ccccc2)o1 [Compound 15] and write its reported EC50.
Out: > 1000 nM

In: Read the entry CCC(=O)CCCCC[C@H](NC(=O)C(C)n1nc(C)cc1C)c1ncc(-c2cc3ccccc3nc2OC)o1 (stereo partly drawn) [Compound 95] and write its reported EC50.
Out: > 1000 nM

----------
Assay: Rat PK studies, oral dose
Assay type: in vivo, Sprague-Dawley rats
Settings: male, Sprague-Dawley, plasma, po 10 mg/kg
Property: AUC; scope: individual molecules
# unit: µM·h | format: bare number

CCC(=O)CCCCC[C@H](NC(=O)C1CN(C)C1)c1ncc(-c2cc3ccccc3nc2OC)o1 40
CCC(=O)CCCCC[C@H](NC(=O)C1CN(C)C1)c1nnc(-c2cc3ccccc3nc2OC)o1 5.91

In: Read the entry `CCC(=O)CCCCC[C@H](NC(=O)C12CCN(CC1)CC2)c1ncc(-c2cc3ccccc3nc2OC)o1` and write its reported AUC.
Out: 10.1

----------
Assay: Mouse in vivo pharmacokinetics, oral dose
Settings: plasma, po 20 mg/kg
property_label: Cmax (nM)
# unit: nM | format: bare number

In: Read the entry CCC(=O)CCCCC[C@H](NC(=O)C1CN(C)C1)c1ncc(-c2cc3ccccc3nc2OC)o1 [Compound 2] and write its reported Cmax.
Out: 1870

----------
Test: Intrinsic clearance in pooled mouse liver microsomes
Assay type: in vitro ADME
Conditions: pH 7.4
Label n if microsomal CLint at 1 μM falls below 20 µL/min/mg; label y in every other case.

Look over these answered cases.
CCC(=O)CCCCC[C@@H](NC(=O)C1CN(C)C1)c1ncc(-c2cc3ccccc3nc2OC)o1 n
CCC(=O)CCCCC[C@H](NC(=O)C1CN(C)C1)c1ncc(-c2cc3ccccc3nc2OC)o1 y
CCC(=O)CCCCC[C@H](NC(=O)C1CN(C)C1)c1nnc(-c2cc3ccccc3nc2OC)o1 n
CCC(=O)CCCCC[C@H](NC(=O)C1CN(C)C1)c1ncc(-c2cc3ccccc3[nH]c2=O)o1 n

Shifting focus to the compound that follows.
In: Evaluate `CCC(=O)CCCCC[C@H](NC(=O)C1CN(C)C1)c1ncc(-c2cc3ccccc3n(C)c2=O)o1` : microsomal CLint at 1 μM at minimum 20 µL/min/mg?
Out: n

----------
Property: Benzidine positive cells (%); scope: individual compounds
Tested on: K562 cells
Assay: Erythroid differentiation of K562 cells by benzidine staining
Assay type: cell-based, human
Settings: optimized concentration, mean ± SD of six experiments

Below: 5 compounds and their reported Benzidine positive cells (%).
compound	Benzidine positive cells (%)
Nc1ccn([C@@H]2O[C@H](CO)[C@@H](O)[C@@H]2O)c(=O)n1 [Cytosin arabinoside, reference compound]	75 ± 5.4%
CCC(=O)CCCCC[C@H](NC(=O)C1CN(C)C1)c1ncc(-c2cc3ccccc3nc2OC)o1	25 ± 3.5%
N.N.[Cl][Pt][Cl] [Cisplatin, reference compound]	63 ± 8.5%
NC(=O)NO [Hydroxyurea, reference compound]	30 ± 7.5%
Oc1ccc(C=Cc2cc(O)cc(O)c2)cc1 [Resveratrol, reference compound]	70 ± 8.5%

In: Give Benzidine positive cells (%) for CCCC(=O)O [Butyric acid, reference compound] tested on K562 cells.
Out: 32 ± 6.4%

In: Give Benzidine positive cells (%) for O=c1ccc2ccc3occc3c2o1 [Angelicin, reference compound] tested on K562 cells.
Out: 62 ± 8.5%

----------
Test: Rat PK studies, oral dose
Format: in vivo, Sprague-Dawley rats
Conditions: male, Sprague-Dawley, plasma, po 10 mg/kg
property_label: Cmax (nM)
# unit: nM | format: bare number

CCC(=O)CCCCC[C@H](NC(=O)C1CN(C)C1)c1ncc(-c2cc3ccccc3nc2OC)o1 2790
CCC(=O)CCCCC[C@H](NC(=O)C12CCN(CC1)CC2)c1ncc(-c2cc3ccccc3nc2OC)o1 470

Next compound, please.
In: Read the entry `CCC(=O)CCCCC[C@H](NC(=O)C1CN(C)C1)c1nnc(-c2cc3ccccc3nc2OC)o1` and write its reported Cmax.
Out: 580

----------
Assay: Mouse in vivo pharmacokinetics, oral dose
Settings: plasma, po 10 mg/kg
property_label: AUC (µM·h)
# unit: µM·h | format: bare number

CCC(=O)CCCCC[C@H](NC(=O)C1CN(C)C1)c1nnc(-c2cc3ccccc3nc2OC)o1 1.75

Next compound, please.
In: Read the entry `CCC(=O)CCCCC[C@H](NC(=O)C1CN(C)C1)c1ncc(-c2cc3ccccc3n(C)c2=O)o1` and write its reported AUC.
Out: 0.32

----------
Tested on: human γ-globin promoter (EGFP reporter) in K562 cells
Test: HbF activation assay on K562 (EGFP/RFP reporter model system for screening of inducers of fetal hemoglobin)
Format: cell-based
Settings: 60 hours
property_label: EC50

Below: 4 molecules and their reported EC50.
molecule	EC50
CCC(=O)CCCCC[C@H](NC(=O)C1CN(C(C)=O)C1)c1ncc(-c2cc3ccccc3nc2OC)o1	> 1000 nM
CCC(=O)CCCCC[C@H](NC(=O)Cn1nc(C)cc1C)c1ncc(-c2cc3ccccc3nc2OC)o1	> 1000 nM
CCC(=O)CCCCC[C@H](NC(=O)CCn1c(CC)nc2ccccc21)c1ncc(-c2ccccc2)o1	> 1000 nM
CCC(=O)CCCCC[C@H](NC(=O)C1CCN(C)C1)c1ncc(-c2ccccc2)o1 (some centres unmarked)	> 1000 nM

In: Give EC50 for CCC(=O)CCCCC[C@H](NC(=O)C1CCCN(C)C1)c1ncc(-c2cc3ccccc3nc2OC)o1 (some centres unmarked) tested on human γ-globin promoter (EGFP reporter) in K562 cells.
Out: 100 to 1000 nM

Taken from patent US9371295B2.
